# target-or-system: Human immunodeficiency virus type 1 integrase (Human immunodeficiency virus 1, UniProt Q7ZJM1)
# Sequence (Q7ZJM1 whole entry): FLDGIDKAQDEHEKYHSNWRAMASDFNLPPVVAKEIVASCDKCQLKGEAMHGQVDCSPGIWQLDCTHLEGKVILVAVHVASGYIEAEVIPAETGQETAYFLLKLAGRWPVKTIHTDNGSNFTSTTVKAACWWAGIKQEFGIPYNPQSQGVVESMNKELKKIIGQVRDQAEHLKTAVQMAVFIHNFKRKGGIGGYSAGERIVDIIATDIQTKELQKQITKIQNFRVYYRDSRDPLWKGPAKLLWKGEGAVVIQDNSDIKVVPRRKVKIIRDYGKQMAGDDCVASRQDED
pIC50: −log10 of the molar value.
reported-endpoint: pIC50

Solved entries (count: 8):
| compound | pIC50 |
| --- | --- |
| COc1c(C)cc(-c2ccc(/C=C/c3nc4ccccc4[nH]3)o2)cc1C | < 3.54 |
| N#CC(=Cc1ccc(-c2ccc(C(=O)O)cc2)o1)c1nc2ccccc2[nH]1 | < 3.55 |
| N#CC(=Cc1ccc(-c2ccc(O)c(C(=O)O)c2)o1)c1nc2ccccc2[nH]1 | 4.16 |
| CC(C)(C)OC(=O)Nc1ccc(-c2ccc(C=C(C#N)c3nc4ccccc4[nH]3)o2)cc1 | < 3.63 |
| N#CC(=Cc1ccc(-c2cc([N+](=O)[O-])ccc2Cl)o1)c1nc2ccccc2[nH]1 | 4.23 |
| Cc1ccc2[nH]c(C(C#N)=Cc3ccc(-c4ccc(Cl)cc4C(=O)O)o3)nc2c1 | 4.44 |
| N#CC(=Cc1ccc(-c2cccc([N+](=O)[O-])c2)o1)c1nc2ccccc2[nH]1 | < 3.55 |
| N#CC(=Cc1ccc(-c2ccccc2[N+](=O)[O-])o1)c1nc2ccccc2[nH]1 | < 3.55 |

The compound listed as O=[N+]([O-])c1ccccc1-c1ccc(/C=C/c2nc3ccccc3[nH]2)o1 shows pIC50 equal to < 3.52

For O=[N+]([O-])c1cccc(-c2ccc(/C=C/c3nc4ccccc4[nH]3)o2)c1 the compound record lists pIC50 as 4.92

// field: pIC50; key: FC(F)(F)c1cccc(Cl)c1-c1ccc(/C=C/c2nc3ccccc3[nH]2)o1 ; value = < 3.59

Given item N#CC(=Cc1ccc(-c2ccc(C(=O)O)c(O)c2)o1)c1nc2ccccc2[nH]1 , the value recorded as its pIC50 is 4.15

The compound listed as Cc1c(-c2ccc(C=C(C#N)c3nc4ccccc4[nH]3)o2)cccc1[N+](=O)[O-] has a reported pIC50 of 4.07

The recorded pIC50 for O=[N+]([O-])c1cc(Cl)ccc1-c1ccc(/C=C/c2nc3ccccc3[nH]2)o1 is < 3.56

----------
Overview of reported IC50 across a group of compounds:
# target-or-system: Human immunodeficiency virus type 1 integrase (Human immunodeficiency virus 1, UniProt Q7ZJM1)

Observe how each entry below is paired with its result.
| compound | recorded-result |
| --- | --- |
| C/C(=C\c1ccc(-c2ccc(Cl)cc2[N+](=O)[O-])o1)c1nc2ccccc2[nH]1 | > 263 µM |
| COc1c(C)cc(-c2ccc(C=C(C#N)c3nc4ccccc4[nH]3)o2)cc1C | > 271 µM |
| N#C/C(=C\c1ccc(-c2c(Cl)cccc2C(F)(F)F)o1)c1nc2ccccc2s1 | > 232 µM |
| Cc1ccc(C(=O)O)cc1-c1ccc(C=C(C#N)c2nc3ccccc3[nH]2)o1 | 39.8 µM |

Now, please, on to the next compound.
IC50 recorded for this compound, N#C/C(=C\c1ccc(-c2cccc([N+](=O)[O-])c2)o1)c1nc2ccccc2o1 , is > 280 µM

----------
pIC50: −log10 of the molar value.
Here's a batch of molecules along with measured pIC50 for Human immunodeficiency virus type 1 integrase (Human immunodeficiency virus 1).

The recorded pIC50 with Human immunodeficiency virus type 1 integrase (Human immunodeficiency virus 1) for N#CC(=Cc1ccc(-c2ccc(Cl)c(C(=O)O)c2)o1)c1nc2ccccc2[nH]1 was 4.04

COc1ccc(-c2ccc(C=C(C#N)c3nc4ccccc4[nH]3)o2)cn1 tested on Human immunodeficiency virus type 1 integrase (Human immunodeficiency virus 1) gave pIC50: < 3.53

pIC50 value, target or system Human immunodeficiency virus type 1 integrase (Human immunodeficiency virus 1), for N#C/C(=C\c1ccc(-c2c(Cl)cccc2C(F)(F)F)o1)c1nc2ccccc2o1 : < 3.62

// pIC50 (Human immunodeficiency virus type 1 integrase (Human immunodeficiency virus 1)) for N#CC(=Cc1ccc(-c2cc(C(F)(F)F)ccc2Cl)o1)c1nc2ccccc2[nH]1 = 4.50

Entry Cc1c(-c2ccc(/C=C/c3nc4ccccc4[nH]3)o2)cccc1[N+](=O)[O-] , tested on Human immunodeficiency virus type 1 integrase (Human immunodeficiency virus 1), has a reported pIC50 of < 3.54

pIC50 value, target or system Human immunodeficiency virus type 1 integrase (Human immunodeficiency virus 1), for N#CC(=Cc1ccc(-c2cccc(C(=O)O)c2)o1)c1nc2ccccc2[nH]1 : 3.79

The reported pIC50 value, Human immunodeficiency virus type 1 integrase (Human immunodeficiency virus 1), for N#C/C(=C\c1ccc(-c2ccc(Cl)cc2[N+](=O)[O-])o1)c1nc2ccccc2s1 reads < 3.61

// returns pIC50 for N#C/C(=C\c1ccc(-c2cccc([N+](=O)[O-])c2)o1)c1nc2ccccc2s1 with Human immunodeficiency virus type 1 integrase (Human immunodeficiency virus 1); value = < 3.57

Value (pIC50, Human immunodeficiency virus type 1 integrase (Human immunodeficiency virus 1)) for record NC(=O)/C(=C\c1ccc(-c2ccc(Cl)cc2[N+](=O)[O-])o1)c1nc2ccccc2[nH]1 = < 3.61

Assay Human immunodeficiency virus type 1 integrase (Human immunodeficiency virus 1), sample N#CC(=Cc1ccc(-c2ccc(Cl)cc2)o1)c1nc2ccccc2[nH]1 , pIC50 read: < 3.54

Summary: N#CC(=Cc1ccc(-c2ccc(F)cc2C(=O)O)o1)c1nc2ccccc2[nH]1 , Human immunodeficiency virus type 1 integrase (Human immunodeficiency virus 1), pIC50 = < 3.57

Source: ChEMBL document CHEMBL1149702
